Listing of recorded TGI by entry.
System: HCC-2998 colon
Test: NCI tumour cell line growth inhibition, 48 h
Just the number in µM, nothing appended.

COc1cccc(OC(=O)c2ccc(C(F)(F)F)nc2Nc2c(C)cccc2Cl)c1 ... 32.3
COc1cc(NS(C)(=O)=O)ccc1NCc1cnc2ccc3[nH]cccc3c12 ... 35.4

Read the next record carefully.
(Q) Fill blank: measured TGI of the compound "CC(=O)Oc1c2c(c(OC(C)=O)c3c1n(C(C)=O)c1ccccc1n3C(C)=O)n(C(C)=O)c1ccccc1n2C(C)=O" is ____.
(A) 18.9

* * *

// GI50 lookup, one value per entry
System: MDA-MB-435
Assay: NCI tumour cell line growth inhibition, 48 h

# example entries with known answers
Clc1ccccc1[C@@H]1C[C@@H]2Cc3cc(Br)c4ccccc4c3N1O2 ... 2.08 µM
CC/C=C\C[C@H](O)C/C=C1/C(=O)C=C[C@@H]1C/C=C\CCCC(=O)OC(C)C ... 0.572 µM
CN(C)C[C@H]1CCn2c(c(C3=C(c4cn(C)c5ccccc45)C(=O)NC3=O)c3ccccc32)C1 ... 3.95 µM

(Q) Any idea what GI50 was measured for "c1cc(CN2CCCNCCNCCCNCC2)ccc1CN1CCCNCCNCCCNCC1" ?
(A) > 100 µM

(Q) Reported GI50 for CC(CN(C)C)S(=O)(=O)c1ccc(-c2cnc(N)c(C(=O)Nc3ccccc3)n2)cc1 (stereo not given) : what is it?
(A) 4.51 µM

* * *

Tested on: A549 NSCLC
Test: NCI tumour cell line growth inhibition, 48 h
MEASURED_PROPERTY: TGI

COc1cc(O)c(C(=O)CC(C)=O)c(OC)c1 ... > 100 µM
CCCc1n[nH]c(=O)n1N1C(=O)C=CC1=O ... > 100 µM
O=C(Nc1ccc2ncnc(Nc3ccc(Oc4cccc(F)c4)c(Cl)c3)c2c1)c1ccc(CN2CCOCC2)cc1 ... 10.3 µM

(Q) Can you share its TGI? I mean this compound: "Oc1cc(Cl)cc2cc(Cl)cnc12"
(A) > 100 µM

(Q) Look at this compound and give its reported TGI. "COc1cc(N)c2[nH]c3c(C)ccc(C)c3c2c1"
(A) > 100 µM

(Q) Would you mind telling me what TGI value was observed for O=S(c1ccccc1)C1CC2CC3(CCC21O)OCCO3 (stereo not given) ?
(A) > 100 µM

(Q) For the compound "O=C(NNS(=O)(=O)c1ccc(Br)cc1)c1ccc(Cl)cc1NC(=O)C12CC3CC(CC(C3)C1)C2" , what TGI is on record?
(A) 21.4 µM

(Q) Form field: reported TGI of O=P(O)(O)OCC1OC(n2cnc3c(NCc4ccco4)ncnc32)C(O)C1O (stereo not given)
(A) > 37.8 µM

(Q) Can you look up the measured TGI of C=C1C2C[C@@H]3OC4CC5O[C@]6(CC5OC4C(C)C3OC(=O)CC3CC[C@@H]4OC5C7OC8C[C@](CCC9CC(=C)[C@H](CCC(C[C@H]1C)O2)O9)(OC7C4O3)O[C@@H]85)C[C@@H]1O[C@@]2(CC(C)[C@@H]3OC(CC(=O)CCO)C(O)C[C@@H]3O2)CC(C)[C@@H]1O6 (stereo not given in full) for me?
(A) 1.28 µM

(Q) Please look up its TGI: "CCOc1cc(C(=O)O)c2c(ccc3ccc(OC)c(OC)c32)c1OC"
(A) > 100 µM
